Tested on: HeLa MZ
Assay: filipin (cholesterol) integrated intensity within LBPA endosomes, Z-score; higher = more cholesterol in LBPA endosomes
Conditions: compound concentration in added solution (µM; 5 µl added to 20 µl cells): 10; 18 h
Structures can show the parent of a compound that is named as a salt.
Label scheme for filipin (z-score): lower than -0.3 is FALSE, -0.3 and above is TRUE.

molecule="C#C[C@]1(O)CC[C@H]2[C@@H]3CCC4=CC(=O)CC[C@]4(C)[C@H]3CC[C@@]21C [Ethisterone]" test_target="HeLa MZ" class_assignment=FALSE

# input Dear colleague, could you confirm whether C[C@]12CC[C@@H](O)C[C@@H]1CC[C@@H]1[C@@H]2CC[C@]2(C)C(=O)CC[C@@H]12 [Androsterone] has filipin (z-score) at or above -0.3?
# output TRUE

# input Dear colleague, could you confirm whether C[C@]12CCC(=O)C(O)=C1CC[C@@H]1[C@@H]2CC[C@]2(C)C(=O)CC[C@@H]12 [Formestane] has filipin (z-score) at or above -0.3?
# output TRUE

# input Dear colleague, could you confirm whether O=P1(N(CCCl)CCCl)NCCCO1 (stereo not drawn) [Cyclophosphamide] has filipin (z-score) at or above -0.3?
# output TRUE

# input Dear colleague, could you confirm whether C[C@@]12N[C@@H](Cc3ccccc31)c1ccccc12 [(-)-MK 801 hydrogen maleate] has filipin (z-score) at or above -0.3?
# output FALSE

# input Dear colleague, could you confirm whether C(#CCN1CCCC1)CN1CCCC1 [Tremorine dihydrochloride] has filipin (z-score) at or above -0.3?
# output TRUE

# input Dear colleague, could you confirm whether c1ccc2c(c1)OCC(C1=NCCN1)O2 (stereo not drawn) [Idazoxan hydrochloride] has filipin (z-score) at or above -0.3?
# output TRUE

# input Dear colleague, could you confirm whether CCC1(C)CC(=O)NC(=O)C1 [Bemegride] has filipin (z-score) at or above -0.3?
# output FALSE

# input Dear colleague, could you confirm whether CN1C(=O)CCS(=O)(=O)C1c1ccc(Cl)cc1 (stereo not drawn) [Chlormezanone] has filipin (z-score) at or above -0.3?
# output FALSE

# input Dear colleague, could you confirm whether O=c1[nH]c2ccccc2n1C1CCN(CCCC(c2ccc(F)cc2)c2ccc(F)cc2)CC1 [Pimozide] has filipin (z-score) at or above -0.3?
# output TRUE

# input Dear colleague, could you confirm whether CNC(=O)Oc1ccc2c(c1)[C@]1(C)CCN(C)[C@@H]1N2C [Eserine sulfate, physostigmine sulfate] has filipin (z-score) at or above -0.3?
# output FALSE

----------
Tested on: HeLa MZ
Assay: LBPA endosome anti-LBPA integrated intensity (sum per cell), Z-score; higher = more LBPA staining
Details: compound concentration in added solution (µM; 5 µl added to 20 µl cells): 10; 18 h
Structures can show the parent of a compound that is named as a salt.
measured.metric: LBPA endosome anti-LBPA integrated intensity (z-score)
Quick one: just the number, no unit, thanks!

Use the examples below as a reference point.
molecule="O=[N+]([O-])O[C@@H]1CO[C@H]2[C@@H]1OC[C@@H]2O [Isosorbide mononitrate]" obs_value=-0.118
molecule="COc1ccc(Cc2nccc3cc(OC)c(OC)cc23)cc1OC [Papaverine hydrochloride]" obs_value=0.0558

Moving on to the next molecule.
# input Would you please give the reported LBPA endosome anti-LBPA integrated intensity (z-score) of C(#CCN1CCCC1)CN1CCCC1 [Tremorine dihydrochloride] with HeLa MZ?
# output 0.485

----------
Test system: HeLa MZ
Test: whole-cell filipin (free cholesterol) integrated intensity, Z-score; higher = more cholesterol staining
Details: compound concentration in added solution (µM; 5 µl added to 20 µl cells): 10; 18 h
Where a name gives a salt, the structure may show the parent alone.
Class field: derived from whole-cell filipin (z-score); ranges low-valued (below -0.4), mid-valued (-0.4 to below 0.1), high-valued (0.1 or more)

Study these solved cases before continuing.
compound="O=P1(N(CCCl)CCCl)NCCCO1 (stereo not drawn) [Cyclophosphamide]" test_target="HeLa MZ" class_assignment=high-valued
compound="CNCC(O)c1ccc(O)cc1 (racemic) [(+,-)-Synephrine]" test_target="HeLa MZ" class_assignment=mid-valued
compound="CN1[C@@H]2C[C@@H](OC(=O)[C@H](CO)c3ccccc3)C[C@H]1[C@@H]1O[C@@H]12 [Scopolamine hydrochloride]" test_target="HeLa MZ" class_assignment=high-valued
compound="C=C1[C@@H]2CC[C@H]3[C@]4(C)C[C@H](O[C@@H]5O[C@H](CO)[C@@H](OS(=O)(=O)O)[C@H](OS(=O)(=O)O)[C@H]5OC(=O)CC(C)C)C[C@@H](C(=O)O)[C@H]4CC[C@]3(C2)[C@@H]1O [Atractyloside potassium salt]" test_target="HeLa MZ" class_assignment=mid-valued
compound="C[C@@H]1CN([C@H]2CC[C@](C#N)(c3ccc(F)cc3)CC2)CC[C@]1(C(=O)O)c1ccccc1 [Levocabastine hydrochloride]" test_target="HeLa MZ" class_assignment=mid-valued

# input Class label required: C#C[C@]1(O)CC[C@H]2[C@@H]3CCC4=CC(=O)CCC4=C3C=C[C@@]21CC
# output high-valued

# input Class label required: C[C@H](N)[C@H](O)c1ccc(O)c(O)c1
# output high-valued

# input Class label required: O=C(O)CCCc1ccc(N(CCCl)CCCl)cc1
# output high-valued

# input Class label required: C[C@]12CC[C@H](O)C[C@@H]1CC[C@@H]1[C@@H]2CC[C@]2(C)C(=O)CC[C@@H]12 [Epiandrosterone]
# output high-valued

# input Class label required: CCN(CC)C(C)C(=O)c1ccccc1 (stereo not drawn) [Amfepramone hydrochloride]
# output low-valued

# input Class label required: CN(C)C(=O)Oc1cccc([N+](C)(C)C)c1 [Neostigmine bromide]
# output low-valued

# input Class label required: CCC1(c2ccc(N)cc2)CCC(=O)NC1=O (stereo not drawn) [Glutethimide, para-amino]
# output low-valued

# input Class label required: COc1ccc(OC)c(C(O)C(C)N)c1 (stereo not drawn) [Methoxamine hydrochloride]
# output low-valued

# input Class label required: O=C(NCNC(=O)NC1C(=O)NC(=O)N1CO)NC1C(=O)NC(=O)N1CO (stereo not drawn)
# output low-valued

# input Class label required: C=C(C)[C@@H]1[C@H]2OC(=O)[C@@H]1[C@]1(O)C[C@H]3O[C@]34C(=O)O[C@H]2[C@]14C
# output low-valued

# input Class label required: C[N+]12CCC(CC1)C(OC(=O)C(O)(c1ccccc1)c1ccccc1)C2 (stereo not drawn) [Clidinium bromide]
# output low-valued

----------
System: A431
Experiment: LBPA endosome anti-LBPA integrated intensity (sum per cell), Z-score; higher = more LBPA staining
Details: compound concentration in added solution (µM; 5 µl added to 20 µl cells): 10; 18 h
Counter-ions that a name gives are not always drawn.
Label scheme for LBPA endosome anti-LBPA integrated intensity (z-score): lower than -0.3 is 0 (no), -0.3 and above is 1 (yes).

Study these solved cases before continuing.
molecule=CC[C@@H](C(N)=O)N1CCCC1=O class_assignment="0 (no)"
molecule=CCn1cc(C(=O)O)c(=O)c2cc3c(cc21)OCO3 class_assignment="0 (no)"
molecule="CC(NC(C)(C)C)C(=O)c1cccc(Cl)c1 (stereo not drawn) [Bupropion hydrochloride]" class_assignment="0 (no)"

# input Dear colleague, could you confirm whether CC(=O)OCC(=O)[C@H]1CC[C@H]2[C@@H]3CC[C@H]4C[C@H](O)CC[C@]4(C)[C@H]3C(=O)C[C@]12C [Alfadolone acetate] has LBPA endosome anti-LBPA integrated intensity (z-score) at or above -0.3?
# output 1 (yes)

# input Dear colleague, could you confirm whether COc1ccc(CN2CCNCC2)c(OC)c1OC [Trimetazidine dihydrochloride] has LBPA endosome anti-LBPA integrated intensity (z-score) at or above -0.3?
# output 0 (no)

# input Dear colleague, could you confirm whether CCN(C)C(=O)Oc1cccc([C@H](C)N(C)C)c1 has LBPA endosome anti-LBPA integrated intensity (z-score) at or above -0.3?
# output 0 (no)

----------
Test system: A431
Assay: whole-cell filipin (free cholesterol) integrated intensity, Z-score; higher = more cholesterol staining
Conditions: compound concentration in added solution (µM; 5 µl added to 20 µl cells): 10; 18 h
Structures can show the parent of a compound that is named as a salt.
Each record here notes measured whole-cell filipin (z-score).
Quick one: just the number, no unit, thanks!

Use the examples below as a reference point.
compound="O=[N+]([O-])O[C@H]1CO[C@H]2[C@@H]1OC[C@H]2O[N+](=O)[O-] [Isosorbide dinitrate]" obs_value=-0.426
compound=CC[C@@H](C(N)=O)N1CCCC1=O obs_value=-0.363
compound="O=c1[nH]oc2c1CCNC2 [THIP Hydrochloride]" obs_value=-0.151

# input In one line, give reported whole-cell filipin (z-score) of the entry CNC(C)(C)Cc1ccccc1 [Mephentermine hemisulfate] .
# output -0.48
